Target: full length mouse TREX1 (Mus musculus)
Construct: N-terminally His-Tev tagged full length mouse TREX1; made in house; host or cells: E. coli
Sequence (Q91XB0 whole entry): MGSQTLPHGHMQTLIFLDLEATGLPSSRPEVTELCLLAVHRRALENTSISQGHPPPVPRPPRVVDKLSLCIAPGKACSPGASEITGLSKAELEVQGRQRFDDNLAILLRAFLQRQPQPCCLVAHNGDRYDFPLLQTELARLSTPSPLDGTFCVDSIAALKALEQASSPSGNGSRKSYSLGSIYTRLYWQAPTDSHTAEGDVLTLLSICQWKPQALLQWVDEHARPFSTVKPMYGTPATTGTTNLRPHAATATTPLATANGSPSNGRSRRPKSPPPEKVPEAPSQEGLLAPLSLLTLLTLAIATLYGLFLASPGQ
Test: mTREX1 Biochemical Assay (fluorescence, dsDNA substrate degradation)
Conditions: biochemical, read-out: mTREX1 IC50
pIC50: −log10 of the molar value.
Reported pIC50 values are given for each entry in this list.

| Molecule | Test System | pIC50 |
| --- | --- | --- |
| CC(c1nc(C(=O)Nc2cnoc2)c(O)c(=O)n1C)C(c1cnn(C)c1)c1ccc(Cl)cc1C#N (single isomer, unassigned) [Example 27 D2E2] | full length mouse TREX1 (Mus musculus) | < 8.00 |
| CCn1cc(C(c2cc(F)ccc2Cl)C(C)c2nc(C(=O)Nc3cnoc3)c(O)c(=O)n2C)cn1 (single isomer, unassigned) [Example 60 D2E2] | full length mouse TREX1 (Mus musculus) | < 8.00 |
| CCn1ncc(C(c2ccc(F)cc2C#N)C(C)c2nc(C(=O)Nc3cnoc3)c(O)c(=O)n2C)c1C (single isomer, unassigned) [Example 65 D2E1] | full length mouse TREX1 (Mus musculus) | < 8.00 |
